System: Phosphatidylinositol 4-phosphate 3-kinase C2 domain-containing subunit beta (Homo sapiens, UniProt O00750)
Sequence (O00750 whole entry, the tested form may be a part): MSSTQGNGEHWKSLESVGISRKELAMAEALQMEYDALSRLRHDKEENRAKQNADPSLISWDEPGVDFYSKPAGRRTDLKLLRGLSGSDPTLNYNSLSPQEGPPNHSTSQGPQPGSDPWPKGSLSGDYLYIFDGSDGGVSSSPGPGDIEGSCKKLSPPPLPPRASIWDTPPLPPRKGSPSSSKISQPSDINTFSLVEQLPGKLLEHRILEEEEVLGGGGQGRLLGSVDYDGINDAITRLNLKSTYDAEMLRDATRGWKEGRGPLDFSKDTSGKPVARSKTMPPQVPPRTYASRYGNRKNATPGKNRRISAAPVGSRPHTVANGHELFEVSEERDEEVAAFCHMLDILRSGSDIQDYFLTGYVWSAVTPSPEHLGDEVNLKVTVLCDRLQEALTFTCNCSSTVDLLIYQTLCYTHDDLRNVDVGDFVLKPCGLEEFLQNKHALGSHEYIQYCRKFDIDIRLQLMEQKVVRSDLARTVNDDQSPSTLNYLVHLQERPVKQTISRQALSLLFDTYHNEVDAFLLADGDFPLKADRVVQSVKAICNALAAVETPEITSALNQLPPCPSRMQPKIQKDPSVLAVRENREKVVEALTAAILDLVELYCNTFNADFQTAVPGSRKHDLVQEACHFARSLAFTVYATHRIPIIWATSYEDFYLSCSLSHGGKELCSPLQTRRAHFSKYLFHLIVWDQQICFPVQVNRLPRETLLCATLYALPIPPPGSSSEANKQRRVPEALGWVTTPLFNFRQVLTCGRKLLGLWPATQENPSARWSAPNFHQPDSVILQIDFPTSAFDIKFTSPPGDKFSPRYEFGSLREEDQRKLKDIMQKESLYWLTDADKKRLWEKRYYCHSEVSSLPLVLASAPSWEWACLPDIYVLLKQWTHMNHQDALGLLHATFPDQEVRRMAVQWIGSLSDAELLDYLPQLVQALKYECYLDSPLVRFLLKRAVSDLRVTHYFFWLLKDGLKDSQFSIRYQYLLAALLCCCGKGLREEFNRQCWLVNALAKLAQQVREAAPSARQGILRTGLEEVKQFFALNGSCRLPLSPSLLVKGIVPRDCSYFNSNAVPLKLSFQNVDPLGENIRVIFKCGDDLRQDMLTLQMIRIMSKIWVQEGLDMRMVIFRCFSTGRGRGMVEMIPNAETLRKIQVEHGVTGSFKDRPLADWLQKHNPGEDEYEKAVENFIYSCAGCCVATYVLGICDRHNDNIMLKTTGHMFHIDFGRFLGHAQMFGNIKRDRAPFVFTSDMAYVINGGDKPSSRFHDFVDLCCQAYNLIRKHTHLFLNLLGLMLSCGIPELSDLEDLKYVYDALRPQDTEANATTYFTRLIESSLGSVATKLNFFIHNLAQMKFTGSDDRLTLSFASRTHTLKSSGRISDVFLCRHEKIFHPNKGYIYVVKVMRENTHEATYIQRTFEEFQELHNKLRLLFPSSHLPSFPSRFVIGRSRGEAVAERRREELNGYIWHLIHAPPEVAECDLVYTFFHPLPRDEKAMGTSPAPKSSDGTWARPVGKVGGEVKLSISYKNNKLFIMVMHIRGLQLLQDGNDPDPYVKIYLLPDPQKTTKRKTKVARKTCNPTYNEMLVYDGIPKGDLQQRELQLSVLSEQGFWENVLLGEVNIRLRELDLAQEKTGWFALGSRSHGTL
Procedure summary: Inhibition of PI3KC2beta (unknown origin)
pIC50: −log10 of the molar value.
Observable: pIC50

Notebook: "C[C@H]1Cc2ccccc2N1C(=O)Cc1nc(N2CCOCC2)cc(=O)[nH]1" , pIC50 read as < 6.00

---

Procedure summary: AUC (infinity) in nude rat at 3 mg/kg, iv
Format: ADME, organism-based
Parameters: time infinity, dose 3 mg/kg, route intravenous
Measurement conditions: plasma
Observable: AUC(0-inf) (ng·h/mL)
API: value field is a number in ng·h/mL; no unit string.

# AUC(0-inf) of C[C@H]1Cc2ccccc2N1C(=O)Cc1nc(N2CCOCC2)cc(=O)[nH]1 [SAR-260301] = 864

Reference for the values: ChEMBL document CHEMBL3112424
